Biological target: Human thrombin (Homo sapiens, UniProt P00734)
Construct: Human thrombin (8.3 mg/ml) was obtained from Hematologic Technologies Inc; purchased Hematologic Technologies Inc. (Essex Junction, VT, USA)
Test: Thrombin induced hydrolysis of specific substrates in buffer system
Type: biochemical
Settings: fast fluorogenic substrate (SFLUO), 100 µM; thrombin 0.2 nM; read-out: Inhibition of specific thrombin substrate hydrolysis in buffer system IC50
Below: a set of entries, each annotated with reported IC50.
Please state the figure in µM; there is no need to write the unit.

Some solved entries appear below for comparison.
Query IC50 on Human thrombin (Homo sapiens, UniProt P00734) for CC12CCC3C(CC=C4CC(SC(=N)N)CCC43C)C1CCC2=O (stereo not shown) [NSC 41339] 240

Query IC50 on Human thrombin (Homo sapiens, UniProt P00734) for CC(C)(C)CC(C)(C)c1ccc(OCCSC(=N)N)cc1 [NSC 4482] 3.45

Could you now look at the following compound, please?
Query IC50 on Human thrombin (Homo sapiens, UniProt P00734) for CC(=O)C1CCC2C3CC=C4CC(SC(=N)N)CCC4(C)C3CCC12C (stereo not shown) [NSC 123477] 75
